// provenance: BindingDB's records for doi:10.1016/j.bmcl.2016.03.009

experiment: Agonist activity at human IP receptor in platelet rich plasma assessed as inhibition of ADP-induced platelet aggregation preincubated for 1 min followed by addition of ADP by aggregometry
pIC50: −log10 of the molar value.
propertyName: pIC50

Cc1ccc(N(CCN2CCC(OCC(=O)O)CC2)C(=O)c2ccccc2)cc1 ... 6.89
O=C(O)COc1ccc(CCCN(C(=O)c2ccccc2)c2ccc(Cl)cc2)cc1 ... 4.70
O=C(O)COc1cccc2c1OCCN2CCN(C(=O)c1ccccc1)c1ccc(Cl)cc1 ... 7.89
O=C(O)COC1CCC(=CCN(C(=O)c2ccccc2)c2ccc(Cl)cc2)CC1 (stereo not given) ... 6.49
CCc1ccc(N(CCN2CCC(OCC(=O)O)CC2)C(=O)c2ccccc2)cc1 ... 6.37
COc1ccc(N(CCN2CCC(OCC(=O)O)CC2)C(=O)c2ccccc2)cc1 ... 6.05
O=C(O)COC1CCN(CCN(C(=O)c2ccccc2)c2ccc(Cl)cc2)CC1 ... 6.36
CCCc1ccc(N(CCN2CCC(OCC(=O)O)CC2)C(=O)c2ccccc2)cc1 ... 6.00
O=C(O)COc1ccc(CCN(C(=O)c2ccccc2)c2ccc(Cl)cc2)cc1 ... 6.13
O=C(O)COC1CCN(CCN(C(=O)c2ccccc2)c2ccc(Cl)cc2)C1 (stereo not given) ... 4.64
O=C(O)COC1CCN(CCN(C(=O)c2ccccc2)c2ccccc2)CC1 ... 5.49

----------
Measured IC50 values are reported for all entries that follow.
assay: Agonist activity at human IP receptor in platelet rich plasma assessed as inhibition of ADP-induced platelet aggregation preincubated for 1 min followed by addition of ADP by aggregometry
propertyName: IC50

CC(C)c1ccc(N(CCN2CCC(OCC(=O)O)CC2)C(=O)c2ccccc2)cc1 ... > 1000 nM
Cc1ccccc1N(CCN1CCC(OCC(=O)O)CC1)C(=O)c1ccccc1 ... > 1000 nM
O=C(O)COc1ccc(CN(C(=O)c2ccccc2)c2ccc(Cl)cc2)cc1 ... > 30000 nM
Cc1ccc(N(CCN2CCC(OCC(=O)O)CC2)C(=O)c2ccccc2)c(C)c1 ... > 1000 nM
O=C(O)COc1cccc(CCN(C(=O)c2ccccc2)c2ccc(Cl)cc2)c1 ... > 30000 nM
CCCCc1ccc(N(CCN2CCC(OCC(=O)O)CC2)C(=O)c2ccccc2)cc1 ... > 1000 nM
Cc1cc(C)c(N(CCN2CCC(OCC(=O)O)CC2)C(=O)c2ccccc2)c(C)c1 ... > 1000 nM
Cc1cccc(N(CCN2CCC(OCC(=O)O)CC2)C(=O)c2ccccc2)c1 ... > 1000 nM
O=C(O)COC1CCN(CCN(C(=O)c2ccccc2)c2ccc(N3CCCC3)cc2)CC1 ... > 1000 nM
